Origin of the recorded values: ChEMBL document CHEMBL1201862

system: RXF 393; assay: NCI tumour cell line growth inhibition, 48 h
Activity calls are given as the source filed them. Rule as the data show it: active = GI50 up to about 1.1 µM and inactive = higher.
Can you tell me GI50 for the items I'm about to list?

INPUT: Return reported GI50. Input molecule: `CC(=O)Nc1ccc(-c2nc3cc(Cl)ccc3o2)cc1`
OUTPUT: > 50 µM (inactive)

INPUT: Name the recorded GI50 of the item `CCCCCCCCCCCCCC[C@@H](O)[C@H]1CC[C@H]([C@H]2CC[C@H]([C@H](O)CCCCCC[C@@H](O)CC3=C[C@H](C)OC3=O)O2)O1` in your answer.
OUTPUT: > 25 µM (inactive)

INPUT: Give the reported GI50 for this molecule. COC(=O)CC(NC(=O)OCc1ccccc1)C(C(=O)OCc1ccccc1)C1(C)OCCO1 (stereo not drawn)
OUTPUT: 21.4 µM (inactive)

INPUT: Look up and state reported GI50 for O=C(NC(Cc1ccc(Br)cc1)C(=O)O)c1ccc(I)cc1 (stereo not drawn)
OUTPUT: > 100 µM (inactive)

INPUT: Fill in GI50 for record `CC[C@H]1C=CCC[C@@]2(C[C@@H]3CC[C@H]4[C@@H](C(=O)OCCCCCCCCCCCCCCCC(=O)N(CCCNC(C)=O)C[C@H](CCNC(C)=O)OC(C)=O)[C@@]5(CCC[C@@H](C)O5)NC(=[N+]34)N2)O1`
OUTPUT: 1.79 µM (inactive)

INPUT: Complete the entry with GI50 for CCCCCCCCC1C(C)c2c([nH]c3ccccc23)C2C(=O)N(c3ccccc3)C(=O)C21 (stereo not drawn)
OUTPUT: 2.38 µM (inactive)

INPUT: Give the value of GI50 reported for the following: `CCOC(=O)/C(=C\NC(C)(C)CO)c1nc2ccccc2[nH]1`
OUTPUT: > 100 µM (inactive)

INPUT: Please list GI50 recorded for the molecule `CCOP(=O)(O)C(C)(C)NC`
OUTPUT: > 100 µM (inactive)
